- System: E. faecalis ATCC 29212
- Type: cell-based, Enterococcus faecalis
- condition-info: ATCC 29212, 20 h
Where a SMILES comes first, the peptide text is derived from it. [ ]: non-standard residue; d: D form. The star is where a group is joined. d(aIle) = CC[C@H](C)[C@@H](N)C(=O)O; dDab = NCC[C@@H](N)C(=O)O; Octanoyl = CCCCCCCC(=O)*; Dab = NCC[C@H](N)C(=O)O

compound	experimental-system	MIC, µg/mL
CCCCCCCC(=O)N[C@H](Cc1ccccc1)C(=O)N[C@H](CCN)C(=O)N[C@@H](C(=O)N[C@H](CO)C(=O)N[C@H](Cc1c[nH]c2ccccc12)C(=O)N[C@@H](CO)C(=O)N[C@@H](CO)C(=O)N[C@H](CCN)C(=O)N[C@@H](Cc1c[nH]c2ccccc12)C(=O)N[C@@H](CO)C(=O)N[C@H](C(=O)N[C@@H](C(=O)N[C@@H](CCN)C(=O)O)[C@@H](C)CC)C(C)C)[C@H](C)CC [Oct-TriD] (Octanoyl-[dF][dDab][dI][dS][dW]SS[dDab]WSV[d(aIle)][Dab]-OH)	E. faecalis ATCC 29212	8
